system: Estrogen receptor (Homo sapiens)
assayOverview: OT_ER_ERaERa_0480: Odyssey Thera (OT) 8-hour HEK293T Protein-Complementation Assay for Estrogen Receptor-alpha/-alpha Homodimer (AID 2283351);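 note: rise in fluorescence from reassembled reporter fragments on ERα LBD homodimer in nucleus or whole cell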
Records with an inconclusive call do not appear. Active and inactive are the calls of the source. Rule for the calls: active = hit-call score of the fitted dose curve at least 0.9, where 1 is the maximum; inconclusive = response in the unintended direction; inactive = score below 0.9.
One label from this list, please: true (1) for active, false (0) for inactive

>  <compound>
CCCc1ccc(OC)cc1

>  <classAssignment>
false (0)

$$$$
>  <compound>
CCN(CCC#N)c1ccc(N=Nc2c(Cl)cc([N+](=O)[O-])cc2Cl)cc1

>  <classAssignment>
false (0)

$$$$
>  <compound>
C=CC(=O)NC(C)(C)CS(=O)(=O)O

>  <classAssignment>
false (0)

$$$$
>  <compound>
CCCCCCCOC(=O)CCC

>  <classAssignment>
false (0)

$$$$

Enquiry: Give the logged outcome of this assay for the following compound: `Cc1ccc(N/N=c2\c(=O)cc/c(=N/Nc3ccc(S(=O)(=O)O)cc3)c2=O)c(C)c1`
Return: false (0)

Enquiry: `CCO[Si](C)(OCC)OCC` ?
Return: false (0)

Enquiry: Subsequent entry: `O=C(c1ccccc1)C1CCC1`
Return: false (0)

Enquiry: Do the same for `CCCCCc1ccc(Cl)cc1` please
Return: false (0)

Enquiry: # repeat for `Cc1ccc(C(C)c2ccc(C)c(C)c2)cc1C`
Return: true (1)

Enquiry: Ok, now `COC(=O)c1c(C)cc(O)c(C)c1O`
Return: false (0)

Enquiry: Please answer likewise for `CCCCCCCC/C=C\CCCCCCCC(=O)OCCO`
Return: false (0)

Enquiry: Similarly, `CC(C)(C)c1ccc(OC(=O)c2ccccc2O)cc1` ?
Return: false (0)

Enquiry: Now the compound `O=C(C(Cl)Cl)N1CCOC12CCCCC2`
Return: false (0)

Enquiry: What would you report for `CC(=O)OC(C)C` ?
Return: false (0)

Enquiry: What do you have for `CCCCCCCC/C=C\CCCCCCCC(=O)O` ?
Return: false (0)

Enquiry: Entry O=C(OCC1CCC2OC2C1)C1CCC2OC2C1 (stereo not drawn) please
Return: true (1)

Enquiry: And `OC1CCCC1` ?
Return: false (0)

Enquiry: Next compound: `NC(CO)(CO)CO`
Return: false (0)

###

assayOverview: ATG_PPRE_CIS: Attagene CIS-FACTORIAL HepG2 Assay for human Peroxisome Proliferator-activated Response Element (PPRE) (AID 2282958)
setupConditions: HepG2 PPRE cis-element reporter, Attagene transcription factor profiling; actives raise or lower the signal
Active and inactive are the calls of the source. Rule for the calls: active = hit-call score of the fitted dose curve at least 0.9, where 1 is the maximum; inactive = score below 0.9.
Answer with one of the outcomes 1.0 for active, 0.0 for inactive

For orientation, consider the following solved cases.
>  <molecule>
CC(C)CC(O)Cc1ccccc1 (stereo not given)

>  <classAssignment>
0.0

$$$$
>  <molecule>
CCN(Cc1cccc(S(=O)(=O)O)c1)c1ccc(C(=C2C=CC(=[N+](CC)Cc3cccc(S(=O)(=O)[O-])c3)C=C2)c2ccccc2)cc1

>  <classAssignment>
0.0

$$$$
>  <molecule>
COC(=O)/C=C\C(=O)O

>  <classAssignment>
0.0

$$$$
>  <molecule>
CC(=O)Oc1ccc(C(C)=O)cc1

>  <classAssignment>
0.0

$$$$
>  <molecule>
CC(=O)OC(C)C

>  <classAssignment>
0.0

$$$$

Enquiry: Per the records of this test, what outcome belongs to CC(C)(Oc1ccc(C2CC2(Cl)Cl)cc1)C(=O)O (stereo not given) ?
Return: 1.0

Enquiry: And CN1C(=O)N(C)C(O)C1O (stereo not given) ?
Return: 0.0
